B1: LINE1-full (parent)
chain: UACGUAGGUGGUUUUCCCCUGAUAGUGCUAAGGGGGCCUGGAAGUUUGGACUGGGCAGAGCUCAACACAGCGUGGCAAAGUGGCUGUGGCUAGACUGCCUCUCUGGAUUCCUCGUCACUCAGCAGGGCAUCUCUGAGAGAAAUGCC

Variants of: B1
assay.details: self-cleavage, relative activity (ratio to wild type); higher = more cleavage; in vitro, sequencing; the parent is a self-cleaving ribozyme
Could you please report measured self-cleavage for the items listed next?

In: I'd like to know its self-cleavage. The variant in question is UACGUAGGUGGUUUACCCCUGAUAGUGCUAAGGGGGCCUGGAAGUUUGGACUGGGCAGAGCUCAACACAGCGUGGCAAAGUGGCUGUGGCUAGAUUGCCUCUCUGGAUUCCUCGUCACUCAGCAGGGCAUCUCUGAGAGAAAUGCC [U15A C95U]
Out: 0.41

In: I'd like to know its self-cleavage. The variant in question is UACGUAGGUGGUUUUCCCCUGAUAGUGCUAAGGGGGCCUGGAAGUUUGGGCUGGGCAGAGCUCAACACAGCGUGGCAAAGUGGCUGUGGCUAGACUGCCUCUCUGGAUUCCUCGUCACUCAGCUGGGCAUCUCUGAGAGAAAUGCC [A50G A124U]
Out: 0.79

In: I'd like to know its self-cleavage. The variant in question is UACGUAGGUGGGUUUCCCCUGAUAGUGCUAAGGGGGCCUGGAAGUUUGGACUGGGCAGAGCUCAACACAGCGUGGCUAAGUGGCUGUGGCUAGACUGCCUCUCUGGAUUCCUCGUCACUCAGCAGGGCAUCUCUGAGAGAAAUGCC [U12G A77U]
Out: 0.78

In: I'd like to know its self-cleavage. The variant in question is UACGUCGGUGGUUUUCCCCUGAUAGUGCUAUGGGGGCCUGGAAGUUUGGACUGGGCAGAGCUCAACACAGCGUGGCAAAGUGGCUGUGGCUAGACUGCCUCUCUGGAUUCCUCGUCACUCAGCAGGGCAUCUCUGAGAGAAAUGCC [A6C A31U]
Out: 0

In: I'd like to know its self-cleavage. The variant in question is UACGUAGGUGGUUUUCACCUGAUAGUGCUAAGGGGGCCUGGAAGUUUGGACUGGGCAGAGCUCAACGCAGCGUGGCAAAGUGGCUGUGGCUAGACUGCCUCUCUGGAUUCCUCGUCACUCAGCAGGGCAUCUCUGAGAGAAAUGCC [C17A A67G]
Out: 0.56

In: I'd like to know its self-cleavage. The variant in question is UACGUAGGUGGUUUACCCCUGAUAGUGCUAAGGGGGCCUGGAAGUUUGGACUGGGCAGAGCUCAACACAGCGUGGCAAAGUGGCUGUGGCUAGACUGCCGCUCUGGAUUCCUCGUCACUCAGCAGGGCAUCUCUGAGAGAAAUGCC [U15A U100G]
Out: 1.07

In: I'd like to know its self-cleavage. The variant in question is UACGUAGGUGGUUUUCCCCUGAUAGUGCUAAGGGGGCCUGGAAGUUUGGACUGGGCAGAGCUCAACACUGCGUGGCAAAGUGGCUGUGGCUGGACUGCCUCUCUGGAUUCCUCGUCACUCAGCAGGGCAUCUCUGAGAGAAAUGCC [A69U A92G]
Out: 0.03

In: I'd like to know its self-cleavage. The variant in question is UACGUAGGUGGUUUUCCCCUGGUAGUGCUAAGGGGGCCUGGAAGGUUGGACUGGGCAGAGCUCAACACAGCGUGGCAAAGUGGCUGUGGCUAGACUGCCUCUCUGGAUUCCUCGUCACUCAGCAGGGCAUCUCUGAGAGAAAUGCC [A22G U45G]
Out: 0.82

In: I'd like to know its self-cleavage. The variant in question is UACGUAGGUGGUUUUCCCCUGAUAGUGCUAAGGGGGCCUGGAAGUUUGGGCUGGGCAGAGCUCAACACAGCGUAGCAAAGUGGCUGUGGCUAGACUGCCUCUCUGGAUUCCUCGUCACUCAGCAGGGCAUCUCUGAGAGAAAUGCC [A50G G74A]
Out: 0.48

In: I'd like to know its self-cleavage. The variant in question is UACGUAGGUGGUUUUCCCCUGAUAGUGCUAAGGGGGCCUGGAAGUUUGGACUGGGCAGAGCUCAGCCCAGCGUGGCAAAGUGGCUGUGGCUAGACUGCCUCUCUGGAUUCCUCGUCACUCAGCAGGGCAUCUCUGAGAGAAAUGCC [A65G A67C]
Out: 0.14

In: I'd like to know its self-cleavage. The variant in question is UACGUAGGUGGUUUUCCCCUGAUAGUGCUAAGGGGGCCCGGAAGUUUGGACUGGGCAGAGCUCAACACAGCGUGGCAAAGUGGCUGUGGCUAGACUGCCUCUCUGGAUUCCUCGUCACUCACCAGGGCAUCUCUGAGAGAAAUGCC [U39C G122C]
Out: 0.96

In: I'd like to know its self-cleavage. The variant in question is UACGUAGGUGGUUUUCCCCUGAUAGUGCUAAGGGGGCCUGGAAGUUUGGACUGGGCAGGGCUCAACACAGCGUGGCAAAGUGGCUGUGGCUGGACUGCCUCUCUGGAUUCCUCGUCACUCAGCAGGGCAUCUCUGAGAGAAAUGCC [A59G A92G]
Out: 0.04

In: I'd like to know its self-cleavage. The variant in question is UACGUAGGUGGGUUUCCCCUGAUAGUGCUAAGGGGGCCUGGAAGUUUGGACUGGGCAGAGCUCAACACAGCGUGGCAAAGUGGCUGUGGCUAGACUGCCUCUCUGGAUUCCUCGUCACUCAGCAGGGCAUCUCUGAGGGAAAUGCC [U12G A138G]
Out: 1.29
